Can you tell me GI50 for the items I'm about to list?
# Tested on: ACHN renal
# Assay Protocol: NCI tumour cell line growth inhibition, 48 h

Molecule: COC(=O)CN1Cc2cc(C)cc(c2O)CN(CC(=O)OC)Cc2cc(C)cc(c2O)CN(CC(=O)OC)Cc2cc(C)cc(c2O)CN(CC(=O)OC)Cc2cc(C)cc(c2O)C1
GI50: 34.6 µM

Molecule: Cc1cc(O)ccc1C1(c2ccc(O)cc2C)OC(=O)c2ccccc21
GI50: 16 µM

Molecule: CCN1CCN(Cc2ccc(NC(=O)Nc3nc(-c4cc(OC)c(OC)c(OC)c4)cs3)cc2C(F)(F)F)CC1
GI50: 1.91 µM

Molecule: Cn1c2c(c3ccccc31)CCN1C[C@@H]3CCCC[C@H]3C[C@@H]21
GI50: 4.32 µM

Molecule: CCOC(=O)C1=C(C)NC2SC(=O)/C(=C\c3cccc(Cl)c3)N2C1c1ccccc1 (centres undefined)
GI50: > 100 µM

Molecule: COc1ccc2nc3cc([N+](=O)[O-])ccc3c(NCCO)c2c1
GI50: 4.87 µM

Molecule: O=S(=O)(NCCNc1nccc(-c2c(-c3ccc(F)cc3)nc3sccn23)n1)c1ccc(O)cc1
GI50: 2.03 µM

Molecule: Cc1[nH]c(C(=O)Nc2cccc(OC3CCNCC3)c2)c(Cl)c1Cl
GI50: 1.75 µM

Please find the next molecule below.
So what's the measured GI50 for this one? `O=C(O)c1ccc(CSc2nc3ccccc3[nH]2)cc1` > 100 µM

---

# System: K-562 leukemia
# Assay Protocol: NCI tumour cell line growth inhibition, 48 h
So I've got a bunch of compounds here, and I need their GI50 values.

Reference set (8 entries):
Compound: CC(C)[C@@]12C[C@@H](OC(=O)COC(=O)c3ccccc3)[C@@](C)(O1)[C@@H]1CC[C@@H](C)[C@H]1[C@@H]2OC(=O)/C=C/c1ccccc1
GI50: 62.7 µM
--
Compound: COc1ccc(N=Nc2ccc(O)c(=O)cc2)cc1
GI50: 3.69 µM
--
Compound: Cn1cc(-c2csc(-c3ccccc3)n2)c2cccnc21
GI50: 13.9 µM
--
Compound: CC[O-].CC[O-].O=C1C=C([O-])C(=O)c2ccccc21.O=C1C=C([O-])C(=O)c2ccccc21.[Ti+4]
GI50: 69.6 µM
--
Compound: O=C(/C=C(/C=C/c1cccc2[nH]ccc12)OB(F)F)/C=C/c1cccc2[nH]ccc12
GI50: 0.423 µM
--
Compound: CCN1CCN(Cc2ccc(Nc3ncc(F)c(-c4cc(F)c5nc(C)n(C(C)C)c5c4)n3)nc2)CC1
GI50: 5.85 µM
--
Compound: COc1ccc(C2=C(c3ccccc3)C(=O)N3CCCC3C2)cc1 (stereo not given)
GI50: 0.0893 µM
--
Compound: CS(=O)(=O)N1CCC(Nc2ncc(C(=O)c3c(F)cccc3F)c(N)n2)CC1
GI50: 20.4 µM

Would you be so kind as to report GI50 for each listed record?
1. COc1cc(/C=C2\CC3C4CCC5=CC(=O)CC[C@]5(C)C4CC[C@]3(C)C2=O)ccc1OCCN1CCCC1 (stereo not given in full)
2. COc1ccc(OC)c(C2=C(c3cn(C)c4ccccc34)C(=O)NC2=O)c1

0.489 µM
17.1 µM

---

# Test system: HT29 colon
# Assay Protocol: NCI tumour cell line growth inhibition, 48 h
Property: TGI

Compound: O=C(c1ccccc1)c1ccc(N2C(=O)/C(=C/c3cccc(Oc4ccccc4)c3)N=C2c2ccccc2)c(N2C(=O)/C(=C/c3cccc(Oc4ccccc4)c3)N=C2c2ccccc2)c1
TGI: > 100 µM
--
Compound: CCOC(=O)C1=C(C)NC2SC(=O)/C(=C\c3cccc(Cl)c3)N2C1c1ccccc1 (configuration not stated)
TGI: > 100 µM

Could you tell me TGI for each of these compounds? They are listed below.
1. CN1N=C(c2ccncc2)OC1c1cccc(F)c1 (configuration not stated)
2. C1CSCCSCCSCCSCCS1
3. CC1(C)N=C(C(N)=O)c2ncn(Cc3ccccc3)c2N1
4. CC(=O)OC1C(O)C(C)OC(OC2C(OC(=O)C3CCC4C(C3)OC3(CC(OC(=O)/C=C/c5ccccc5)C(C)CO3)C43CO3)OC(C)C(O)C2OC(C)=O)C1O (configuration not stated)
5. CC1(C)CC(=O)c2c(-c3ccc(Cl)cc3)c(C#N)c(=S)n(C3OC(CO)C(O)C(O)C3O)c2C1 (configuration not stated)
6. N#Cc1ccc(C2OCC3CC=CCC3CO2)cc1 (configuration not stated)
7. CC[O-].CC[O-].O=C1C=C([O-])C(=O)c2ccccc21.O=C1C=C([O-])C(=O)c2ccccc21.[Ti+4]
8. Nc1ccc(Oc2ccc(C34CC5C6CC7(c8ccc(Oc9ccc(N)cc9)cc8)CC5C(C3)C(C7)C6C4)cc2)cc1

["> 100 µM", "> 100 µM", "> 100 µM", "0.0473 µM", "> 100 µM", "> 100 µM", "> 100 µM", "> 100 µM"]

Please go through the list and note TGI for each compound.
1. C[n+]1cccc(NC(=O)c2ccc3ccc4ccc(C(=O)Nc5ccc[n+](C)c5)nc4c3n2)c1
2. O=c1[nH][nH]c(=O)n1Cc1ccccc1
3. O=C(O)C1=C(CO)Oc2cc3c(cc2C1c1ccc2c(c1)OCO2)OCO3 (configuration not stated)
4. CCN1CCN(Cc2ccc(NC(=O)Nc3nc(-c4cc(OC)c(OC)c(OC)c4)cs3)cc2C(F)(F)F)CC1
5. Nc1c(S(=O)(=O)O)cc(S(=O)(=O)O)c2ccc(N=Nc3ccccc3)c(O)c12
6. O=C(c1ccccc1)c1ccc(N2C(=O)/C(=C/c3ccccc3S)N=C2c2ccccc2)c(N2C(=O)/C(=C/c3ccccc3S)N=C2c2ccccc2)c1
7. C#CN1C(=O)c2c(c(-c3ccccc3)c(-c3ccc(Oc4ccc(-c5c(-c6ccccc6)c6c(c(-c7ccccc7)c5-c5ccccc5)C(=O)N(C#C)C6=O)cc4)cc3)c(-c3ccccc3)c2-c2ccccc2)C1=O
8. COc1ccc2c(c1)OCC1c3cc(OC)c4ccccc4c3OC21 (configuration not stated)

> 100 µM
> 100 µM
> 100 µM
1.48 µM
> 100 µM
> 100 µM
> 100 µM
> 100 µM

---

# Test system: SR leukemia
# Assay Protocol: NCI tumour cell line growth inhibition, 48 h
Property: GI50

Some entries whose results are on file:
Compound: Nc1c(C(=O)Nc2cccc(Cl)c2)sc2nc3c(cc12)C(O)CCC3 (stereo not drawn)
Target Or Test System: SR leukemia
Result: 258 nM
//
Compound: N#CC1=C(N)N=C(N2CCOCC2)C(C#N)C12Nc1ccccc1S2 (stereo not drawn)
Target Or Test System: SR leukemia
Result: 9310 nM
//
Compound: COc1ccc2nc3cc([N+](=O)[O-])ccc3c(NCCO)c2c1
Target Or Test System: SR leukemia
Result: 3130 nM
//
Compound: CS(=O)(=O)Nc1cc(-c2ccc3ncc(C#N)c(Nc4ccc(F)c(Cl)c4)c3c2)cnc1Cl
Target Or Test System: SR leukemia
Result: 161 nM
//
Compound: CCOC(=O)c1c(C)n([O-])c2cc(F)c(F)cc2[n+]1=O
Target Or Test System: SR leukemia
Result: 48.2 nM

Below are some compounds; for each one, tell me its GI50.
1. COc1ccc(N=Nc2ccc(O)c(=O)cc2)cc1
2. Cc1c(O)cccc1C(=O)N[C@@H](CSc1ccccc1)[C@H](O)CN1C[C@H]2CCCC[C@H]2C[C@H]1C(=O)NC(C)(C)C
3. CCCCCCCCCCCCCCCC(=O)NS(=O)(=O)OC[C@H]1O[C@@H](n2cnc3c(N)ncnc32)[C@H](O)[C@@H]1O
4. CCOC(=O)c1c(-c2ccccc2)n2c(=O)cc(C)c3c(O)c(O)cc1c32
5. CC[C@]12C=CCN3CC[C@@]4(c5ccc(OC)cc5N(C)[C@H]4[C@@](O)(C(=O)OC)[C@@H]1OC(=O)CCC(=O)O[C@H]1CC[C@H]4[C@@H]5CCC6=CC(=O)CC[C@@H]6[C@H]5CC[C@]14C)[C@@H]32

3790 nM
2210 nM
< 21 nM
3590 nM
1520 nM

# batch: return GI50 for each of the 8 compounds below
1. CCOc1cc(Cl)c(C(C)NC(=O)c2cccc(OC)c2)cc1OCC (stereo not drawn)
2. CCc1ccc(Oc2c(-c3ccc(OCCc4cccc(C(F)(F)F)c4)cc3O)n[nH]c2C(F)(F)F)cc1
3. CCN1C(=O)/C(=c2\sc3n(c2=O)C2C(NN=3)N(CC)C(=O)N2CC)c2ccccc21 (stereo not drawn)
4. Cn1cc(-c2csc(-c3ccccc3)n2)c2cccnc21
5. COc1ccc2[nH]c(C(=O)OCc3ccc4c(Br)cc(Br)c(O)c4n3)cc2c1
6. COc1cccc2nc(Nc3cccc(NC(=O)c4ccc(N5CCN(C)CC5)c(C(F)(F)F)c4)c3)ccc12
7. CC(=O)Oc1ccc(C2OC(c3ccc4ccccc4c3OC(C)=O)=NN2C(C)=O)c(OC(C)=O)c1 (stereo not drawn)
8. COc1ccc(-c2nc3sccn3c2-c2ccnc(NCCNS(=O)(=O)c3ccc(C(F)(F)F)cc3)n2)cc1

1. 3920 nM
2. 3060 nM
3. 357 nM
4. 9240 nM
5. 293 nM
6. 1130 nM
7. 198 nM
8. 972 nM
